Values were extracted from patent US20180064726A1.

# MEASUREMENT_PROTOCOL: In vitro human liver microsomal stability assay
# Assay type: in vitro ADME
# CONDITION_CONTEXT: degradation half-life; human liver microsomes 0.5 mg per mL protein, NADPH-generating system, 1 μM test compound, 37±1° C., 0-60 min
Collected half-life at 1 μM values appear next to each entry.

COMPOUND	half-life at 1 μM (h)
[2H]C1([2H])COc2ccc(-c3ccc(OC(F)(F)F)cc3)cc2C(=O)N1Cc1ncccn1	2.01
[2H]C([2H])(c1ncccn1)N1C(=O)c2cc(-c3ccc(OC(F)(F)F)cc3)ccc2OC([2H])([2H])C1([2H])[2H]	1.51
[2H]C1([2H])CN(Cc2ncccn2)C(=O)c2cc(-c3ccc(OC(F)(F)F)cc3)ccc2O1	4.62
[2H]c1c(-c2ccc(OC(F)(F)F)cc2)cc2c(c1[2H])OCCN(Cc1ncccn1)C2=O	2.32
O=C1c2cc(-c3ccc(OC(F)(F)F)cc3)ccc2OCCN1Cc1ncccn1 [Example 1, reference compound]	2.36
[2H]C1([2H])Oc2ccc(-c3ccc(OC(F)(F)F)cc3)cc2C(=O)N(Cc2ncccn2)C1([2H])[2H]	1.35
[2H]C([2H])(c1ncccn1)N1CCOc2ccc(-c3ccc(OC(F)(F)F)cc3)cc2C1=O	9.52
